assay: AUC in Sprague-Dawley rat at 30 mg/kg, po; format: ADME, organism-based; parameters: dose 30 mg/kg, route oral; conditions: plasma
quantity measured: AUC
I'd appreciate it if you included the unit after the number.

Reported AUC ( C[C@H]1c2c(cc(F)c(-c3cccc4cc[nH]c34)c2F)NC(C)(C)[C@@H]1O (racemic) ) = 35000 ng·h/mL

* * *

molecular target: UniProt P04150; assay: Agonist activity at human GR expressed in NHDF cells assessed as inhibition of IL-6 production by ELISA relative to Dexamethasone; format: functional, cell-based
Sequence (P04150 whole entry): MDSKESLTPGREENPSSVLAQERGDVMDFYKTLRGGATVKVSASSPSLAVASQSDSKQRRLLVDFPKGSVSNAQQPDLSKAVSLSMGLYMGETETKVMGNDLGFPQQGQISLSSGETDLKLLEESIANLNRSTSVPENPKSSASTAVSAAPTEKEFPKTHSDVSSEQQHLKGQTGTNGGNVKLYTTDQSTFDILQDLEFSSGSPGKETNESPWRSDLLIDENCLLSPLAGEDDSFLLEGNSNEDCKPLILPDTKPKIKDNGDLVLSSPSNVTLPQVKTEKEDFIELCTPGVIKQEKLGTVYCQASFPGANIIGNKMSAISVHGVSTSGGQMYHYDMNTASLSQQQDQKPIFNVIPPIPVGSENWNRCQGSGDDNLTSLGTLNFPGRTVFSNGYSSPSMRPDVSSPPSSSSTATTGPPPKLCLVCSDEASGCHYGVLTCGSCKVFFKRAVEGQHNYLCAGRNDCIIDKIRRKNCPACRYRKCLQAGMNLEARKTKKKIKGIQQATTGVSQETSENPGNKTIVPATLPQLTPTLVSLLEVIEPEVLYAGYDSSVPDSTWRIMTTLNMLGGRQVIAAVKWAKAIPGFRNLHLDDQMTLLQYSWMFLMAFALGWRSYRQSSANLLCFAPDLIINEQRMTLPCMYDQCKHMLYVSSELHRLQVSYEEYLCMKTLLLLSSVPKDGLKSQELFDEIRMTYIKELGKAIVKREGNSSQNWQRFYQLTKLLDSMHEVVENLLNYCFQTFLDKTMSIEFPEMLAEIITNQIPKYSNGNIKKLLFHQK
quantity measured: IC50 (nM)
Numbers only, in nM.

- C[C@H]1c2c(F)c(-c3cccc4cc[nH]c34)c(F)c(F)c2NC(C)(C)[C@@H]1O (racemic): 19
- CO/N=C/c1c(-c2cccc3cc[nH]c23)cc(C)c2c1[C@H](C)[C@@H](O)C(C)(C)N2 (racemic): 4.2
- Cc1cc(-c2cccc3cc[nH]c23)c(/C=N/OC(C)(C)C)c2c1NC(C)(C)[C@H](O)[C@H]2C (racemic): 3.8
- Cc1cc(-c2cccc3cc[nH]c23)c(/C=N/OCc2ccccc2)c2c1NC(C)(C)[C@H](O)[C@H]2C (racemic): 14.4
- Cc1cc(-c2cccc3cc[nH]c23)c(F)c2c1NC(C)(C)[C@H](O)[C@H]2C (racemic): 7.1
- Cc1c(F)c(-c2cccc3cc[nH]c23)cc2c1NC(C)(C)[C@H](O)[C@H]2C (racemic): 4.1
- C[C@H]1c2c(F)c(-c3cccc4cc[nH]c34)c(F)c(Cl)c2NC(C)(C)[C@@H]1O (racemic): 16
- Cc1cc(-c2cccc3cc[nH]c23)c(C#N)c2c1NC(C)(C)[C@H](O)[C@H]2C (racemic): 16

For every item below, please supply its IC50.
1. C[C@H]1c2c(cc(F)c(-c3cccc4cc[nH]c34)c2F)NC(C)(C)[C@@H]1O (racemic)
2. C[C@H]1c2c(Cl)c(-c3cccc4cc[nH]c34)cc(F)c2NC(C)(C)[C@@H]1O (racemic)

A)
[11, 14]
